Some compounds, each annotated with its measured AUC of viability dose-response curve.
Tested on: P12-Ichikawa
Assay: AUC of viability dose-response curve (% viability x log10 dose units); higher = less sensitive
Conditions: RPMI 5 mM glucose + 10% dialyzed FBS; 48 h
PROPERTY MEASURED: AUC of viability dose-response curve

- COMPOUND: "C[C@@H]1[C@H](O)[C@@H](C)C=CC=CCCC=CC=CC=CC=C[C@H](O[C@H]2O[C@@H](C)[C@H](O)[C@@H](N)[C@H]2O)CC2O[C@](O)(C[C@@H](O)[C@H](O)CC[C@@H](O)C[C@@H](O)C[C@@H](O)CC(=O)O[C@H]1C)C[C@H](O)[C@H]2C(=O)O"
  OBSERVED MEASUREMENT: 456
- COMPOUND: "C[C@@H]\\1CC(=O)N\\N=C1C2=CC=C(NN=C(C#N)C#N)C=C2"
  OBSERVED MEASUREMENT: 392
- COMPOUND: "CC1COC2(CCN(CC2)C/3=N/C(=O)C4=CC(=CC(=C4S3)[N+]([O-])=O)C(F)(F)F)O1 (centres undefined)"
  OBSERVED MEASUREMENT: 434
- COMPOUND: "CC[C@@]1(O)C(=O)OC\\C2=C1\\C=C3/N(CC4=CC5=C(C=CC(=C5CN(C)C)O)N=C34)C2=O"
  OBSERVED MEASUREMENT: 215
- COMPOUND: "C[C@]12CC[C@@H]3c4ccc(O)cc4C[C@@H](CCCCCCCCC[S+]([O-])CCCC(F)(F)C(F)(F)F)[C@H]3[C@@H]1CC[C@@H]2O (some centres undefined)"
  OBSERVED MEASUREMENT: 455
- COMPOUND: "C=CC(=O)N1CCC[C@@H](n2nc(-c3ccc(Oc4ccccc4)cc3)c3c(N)ncnc32)C1"
  OBSERVED MEASUREMENT: 452
- COMPOUND: "CCCCCC[C@H]1C(=O)O[C@H](C)[C@H](NC(=O)c2cccc(NC=O)c2O)C(=O)O[C@@H](C)[C@@H]1OC(=O)CC(C)C"
  OBSERVED MEASUREMENT: 403
- COMPOUND: "CCC(=O)NCC[C@@H]1CCc2ccc3c(c21)CCO3"
  OBSERVED MEASUREMENT: 459
- COMPOUND: "CN1CCN(c2ccc([N+](=O)[O-])c3no[n+]([O-])c23)CC1"
  OBSERVED MEASUREMENT: 436

---

Tested on: SEM cells
Experiment: AUC of viability dose-response curve (% viability x log10 dose units); higher = less sensitive
Conditions: RPMI 5 mM glucose + 10% FBS; 48 h

- COMPOUND SMILES: "C[C@@]12C[C@@]3(O)O[C@@H](O1)[C@]1(COC(=O)c4ccccc4)[C@H]3C[C@@]12O[C@@H]1O[C@H](CO)[C@@H](O)[C@H](O)[C@H]1O"
  AUC of viability dose-response curve: 454
- COMPOUND SMILES: "CC(C)=CC[C@@H](O)C/1=C/C(=O)C2=C(O)C=CC(=C2C1=O)O"
  AUC of viability dose-response curve: 407
- COMPOUND SMILES: "CC(C)CC(=O)N[C@H](C(=O)N[C@H](C(=O)N[C@@H](CC(C)C)[C@@H](O)CC(=O)N[C@@H](C)C(=O)N[C@@H](CC(C)C)[C@@H](O)CC(=O)O)C(C)C)C(C)C"
  AUC of viability dose-response curve: 435
- COMPOUND SMILES: "CN1C[C@H]2c3ccccc3Oc3ccc(Cl)cc3[C@@H]2C1"
  AUC of viability dose-response curve: 395
- COMPOUND SMILES: "CCCCCC[C@H]1C(=O)O[C@H](C)[C@H](NC(=O)c2cccc(NC=O)c2O)C(=O)O[C@@H](C)[C@@H]1OC(=O)CC(C)C"
  AUC of viability dose-response curve: 403
- COMPOUND SMILES: "Cc1[nH]c2ccccc2c1CCNCc1ccc(/C=C/C(=O)NO)cc1"
  AUC of viability dose-response curve: 251
- COMPOUND SMILES: "CCC(=O)NCC[C@@H]1CCc2ccc3c(c21)CCO3"
  AUC of viability dose-response curve: 431
- COMPOUND SMILES: "C[C@]1(c2nc3c(C(N)=O)cccc3[nH]2)CCCN1"
  AUC of viability dose-response curve: 393

---

Tested on: NOMO1
Assay: cell viability relative to DMSO control; higher = less cytotoxic
Conditions: HPLM + 10% dialyzed FBS; 48 h; 46.1 µM
Some molecules, each annotated with its measured cell viability.

- MOLECULE: "Cc1ccc([S+](=O)([O-])N[C@@H](Cc2ccccc2)C(=O)CCl)cc1"
  cell viability: "47.6%"
- MOLECULE: "CC(C)(C)c1[nH]cnc1/C=c1\\[nH]c(=O)/c(=C/c2ccccc2)[nH]c1=O"
  cell viability: "5.6%"
- MOLECULE: "COc1ccc(-c2ccc3c(N4CCOC[C@@H]4C)nc(N4CCOC[C@@H]4C)nc3n2)cc1CO"
  cell viability: "3.58%"
- MOLECULE: "C=C[C@H]1CN2CC[C@H]1C[C@H]2[C@H](O)c1ccnc2ccc(OC)cc12"
  cell viability: "86.8%"
- MOLECULE: "OC[C@H]1OCC(O1)[N@@]2C=CC(N)=NC2=O (stereo partly drawn)"
  cell viability: "94.8%"
- MOLECULE: "O=C1c2c(O)ccc(O)c2C(=O)c2c(NCCNCCO)ccc(NCCNCCO)c21"
  cell viability: "5.26%"
- MOLECULE: "COC(=O)[C@@H]1[C@H]2C[C@H]3c4[nH]c5ccccc5c4CCN3C[C@@H]2CC[C@@H]1O"
  cell viability: "35.6%"
- MOLECULE: "CNc1nccc(-c2cccnc2Oc2cc(C(=O)Nc3cccc(C(F)(F)F)c3)ccc2C)n1"
  cell viability: "110%"
- MOLECULE: "Cc1[nH]c2ccccc2c1CCNCc1ccc(/C=C/C(=O)NO)cc1"
  cell viability: "8.11%"
- MOLECULE: "N=C(NCCCCCCNC(=N)NC(=N)Nc1ccc(Cl)cc1)NC(=N)Nc1ccc(Cl)cc1"
  cell viability: "56.5%"
- MOLECULE: "CC(C)C(=O)Oc1ccc(CO)cc1[C@H](CCN(C(C)C)C(C)C)c1ccccc1"
  cell viability: "71.7%"
- MOLECULE: "CO[C@@H]1COCC[C@@H]1N[C@@H]1CC[C@@](C(=O)N2CCc3ncc(C(F)(F)F)cc3C2)(C(C)C)C1"
  cell viability: "96.6%"
- MOLECULE: "C#C[C@]1(O)CC[C@H]2[C@@H]3CCc4cc(O)ccc4[C@H]3CC[C@@]21C"
  cell viability: "51.3%"
- MOLECULE: "CN1C[C@H]2c3ccccc3Oc3ccc(Cl)cc3[C@@H]2C1"
  cell viability: "82.1%"
- MOLECULE: "CC[C@H](C)[N]1C=C(C)C2=C1C=C(C=C2C(=O)NC\\C3=C(C)\\C=C(\\C)NC3=O)C4=CC=C(N=C4)N5CCNCC5"
  cell viability: "82.3%"
- MOLECULE: "O=C(Nc1ccccc1-c1cn2c(CN3CCNCC3)csc2n1)c1cnc2ccccc2n1"
  cell viability: "76.3%"
- MOLECULE: "O=C(Nc1ccc(F)c(C(F)(F)F)c1)Nc1nnc(-c2ccncc2)s1"
  cell viability: "111%"
- MOLECULE: "FC1=CC=C(SC/2=N/N3\\C=N/C(=O)/C(=C3/C=C2)C4=C(Cl)C=CC=C4Cl)C(=C1)F"
  cell viability: "50.2%"

---

Test system: P12-Ichikawa
Test: cell viability relative to DMSO control; higher = less cytotoxic
Details: HPLM + 10% dialyzed FBS; 48 h; 0.0211 µM
Some compounds, each annotated with its measured cell viability.

- COMPOUND: "C/C=C1\\C2C=C(C)CC1(N)c1ccc(=O)[nH]c1C2 (stereo not drawn)"
  cell viability (%): 107
- COMPOUND: "CN1CCN(c2ccc([N+](=O)[O-])c3no[n+]([O-])c23)CC1"
  cell viability (%): 93.8
- COMPOUND: "COc1cc2ncnc(Nc3cc(Br)c(O)c(Br)c3)c2cc1OC"
  cell viability (%): 101
- COMPOUND: "OC[C@H]1OCC(O1)[N@@]2C=CC(N)=NC2=O (stereo partly drawn)"
  cell viability (%): 121
- COMPOUND: "CC(C)C1=C(O)C=C(O)C(=C1)C/2=N/NC(=O)N2C3=CC4=C(C=C3)[N](C)C=C4"
  cell viability (%): 117
- COMPOUND: "C\\C1=C(\\C=C(\\C#N)C(=O)N1)C2=CC=NC=C2"
  cell viability (%): 102
- COMPOUND: "OC1=CC2=C(C(=C1)O)C(=O)\\C=C(/O2)C3=CC=CC=C3"
  cell viability (%): 108
- COMPOUND: "CN(C)[C@H]\\1[C@@H]2C[C@H]3C(=C(O)\\[C@]2(O)C(=O)\\C(=C1O)C(N)=O)/C(=O)C4=C(O)C=CC=C4[C@@]3(C)O"
  cell viability (%): 115
- COMPOUND: "CC/1=C(/N2[C@H](SC1)[C@H](NC(=O)[C@H](N)\\C3=C\\C\\C=C/C3)C2=O)C(O)=O"
  cell viability (%): 121
- COMPOUND: "O=C(Nc1ccccc1-c1cn2c(CN3CCNCC3)csc2n1)c1cnc2ccccc2n1"
  cell viability (%): 84.4
- COMPOUND: "COc1ccc(-c2nc(N3CCOCC3)c3sc(CN(C)c4ncc(C(=O)NO)cn4)cc3n2)cn1"
  cell viability (%): 62.6
- COMPOUND: "C\\C1=C(\\C=C(C#N)/C(=O)N1)C2=C[N]3C=CN=C3C=C2"
  cell viability (%): 89.8
- COMPOUND: "O=C(Nc1ccc(F)c(C(F)(F)F)c1)Nc1nnc(-c2ccncc2)s1"
  cell viability (%): 115
- COMPOUND: "COc1ccc(C(C)=O)c(O)c1"
  cell viability (%): 109
- COMPOUND: "C[S+]([O-])(=O)C1=CC=C(C=C1)C/2=C(/C(=O)OC2)C3=CC=CC=C3"
  cell viability (%): 122
- COMPOUND: "CC(C)CC(=O)N[C@H](C(=O)N[C@H](C(=O)N[C@@H](CC(C)C)[C@@H](O)CC(=O)N[C@@H](C)C(=O)N[C@@H](CC(C)C)[C@@H](O)CC(=O)O)C(C)C)C(C)C"
  cell viability (%): 108
- COMPOUND: "CC(C)=CC[C@@H](O)C/1=C/C(=O)C2=C(O)C=CC(=C2C1=O)O"
  cell viability (%): 108
- COMPOUND: "CCC(C)(Oc1ccc(C2(c3ccc(OC(C)(CC)C(=O)O)cc3)CCCCC2)cc1)C(=O)O (stereo not drawn)"
  cell viability (%): 110
- COMPOUND: "COC1=CC=C(C=C1)C/2=C/OC3=C(C(=CC(=C3)O)O)C2=O"
  cell viability (%): 77.2
- COMPOUND: "NC/1=N/C2=C([NH]C=N2)C(=S)N1"
  cell viability (%): 123
- COMPOUND: "CC(N)C12CC3CC(CC(C3)C1)C2 (stereo not drawn)"
  cell viability (%): 117
- COMPOUND: "O=C(O[C@H]1C[C@H]2CC[C@@H](C1)[N+]21CCCC1)C(O)(c1ccccc1)c1ccccc1.[Cl-]"
  cell viability (%): 106
- COMPOUND: "CCn1c(-c2nonc2N)nc2cnc(Oc3cccc(NC(=O)c4ccc(OCCN5CCOCC5)cc4)c3)cc21"
  cell viability (%): 111
- COMPOUND: "Cc1cc(C(C)(C)C)c(O)c(C)c1CC1=NCCN1"
  cell viability (%): 98.3
- COMPOUND: "CNC[C@H](O)c1ccc(O)c(O)c1"
  cell viability (%): 94.6
- COMPOUND: "COC1=C2OC(=O)\\C=C/C2=CC3=C1OC=C3"
  cell viability (%): 116
- COMPOUND: "Nc1ncnc2c1c(-c1cnc3[nH]ccc3c1)nn2C1CCCC1"
  cell viability (%): 111
- COMPOUND: "CNc1nccc(-c2cccnc2Oc2cc(C(=O)Nc3cccc(C(F)(F)F)c3)ccc2C)n1"
  cell viability (%): 113
